For each record, write down the corresponding pest or weed control at 1000 g/ha.
tested on: Ipomoea hederacea (IPOHE); test: Post-emergence efficacy, glasshouse; format: in vivo; details: Ipomoea hederacea, post-emergence, 312 h; Application Rate 1000 g/Ha; evaluated after 13 days; 100=total damage to plant, 0=no damage to plant; read-out: Control of weed species after post-emergence application, IPOHE
I'd appreciate it if you included the unit after the number.

Observe how each entry below is paired with its result.
{"MOLECULE": "COP(=O)([O-])c1c[n+](CCO)nc2ccccc12", "pest or weed control at 1000 g/ha": "100%"}
{"MOLECULE": "C[C@@H](NC(=O)c1c[n+](C)nc2ccccc12)C(=O)O [Compound A9, 2,2,2-trifluoroacetate]", "pest or weed control at 1000 g/ha": "50%"}
{"MOLECULE": "CCCC[n+]1cc(C(=O)[N-]S(C)(=O)=O)c2ccccc2n1", "pest or weed control at 1000 g/ha": "80%"}
{"MOLECULE": "COC(=O)CCS(=O)(=O)[N-]C(=O)c1c[n+](C)nc2ccccc12", "pest or weed control at 1000 g/ha": "40%"}
{"MOLECULE": "CNS(=O)(=O)[N-]C(=O)c1c[n+](C)nc2ccccc12", "pest or weed control at 1000 g/ha": "30%"}
{"MOLECULE": "CCCS(=O)(=O)[N-]C(=O)c1c[n+](C)nc2ccccc12", "pest or weed control at 1000 g/ha": "60%"}
{"MOLECULE": "O=C(O)CC[n+]1cc(C(=O)[N-]S(=O)(=O)C2CC2)c2ccccc2n1", "pest or weed control at 1000 g/ha": "10%"}
{"MOLECULE": "Cc1c(C(=O)[O-])c2ccccc2n[n+]1C [Compound A61, 2,3-dimethylcinnolin-2-ium-4-carboxylate]", "pest or weed control at 1000 g/ha": "100%"}
{"MOLECULE": "C[n+]1cc(C(=O)O)c2ccccc2n1 [Compound A29]", "pest or weed control at 1000 g/ha": "80%"}
{"MOLECULE": "C[n+]1cc(C(=O)Nc2nncs2)c2ccccc2n1", "pest or weed control at 1000 g/ha": "30%"}

Give pest or weed control at 1000 g/ha for each listed item.
1. C[n+]1cc(C(=O)[N-]S(=O)(=O)C(F)(F)F)c2ccccc2n1
2. C[C@@H](NC(=O)c1c[n+](C)nc2ccccc12)C(=O)OC(C)(C)C
3. C[n+]1cc(CP(=O)([O-])O)c2ccccc2n1

stdout:
1. 20%
2. 10%
3. 20%

* * *

For each record, write down the corresponding pest or weed control at 1000 g/ha.
Tested on: Setaria faberi (SETFA)
Assay: Post-emergence efficacy, glasshouse
Format: in vivo
Details: Setaria faberi, post-emergence, 312 h; Application Rate 1000 g/Ha; evaluated after 13 days; 100=total damage to plant, 0=no damage to plant; read-out: Control of weed species after post-emergence application, SETFA
Procedure: Seeds of a variety of test species were sown in standard soil in pots. […] The test plants were then grown in a glasshouse under controlled conditions (at 24/16° C., day/night; 14 hours light; 65% humidity) and watered twice daily. After 13 days the test was evaluated (100=total damage to plant; 0=no damage to plant). […]
Numbers only, in %.

{"COMPOUND": "O=P(O)(O)CCCc1c[n+](CCCP(=O)(O)O)nc2ccccc12 [Compound A82]", "ASSAY TARGET": "Setaria faberi (SETFA)", "VALUE": 0}
{"COMPOUND": "CS(=O)(=O)[N-]C(=O)c1c[n+](CC(F)F)nc2ccccc12 [Compound A14]", "ASSAY TARGET": "Setaria faberi (SETFA)", "VALUE": 30}

Give pest or weed control at 1000 g/ha for each listed item.
1. CC(C)S(=O)(=O)[N-]C(=O)c1c[n+](C)nc2ccccc12 [Compound A34]
2. CCS(=O)(=O)[N-]C(=O)c1c[n+](C)nc2ccccc12 [Compound A37]
3. C[n+]1cc(C(=O)[N-]S(=O)(=O)C2CC2)c2ccccc2n1 [Compound A12]
4. Cn1ncnc1NC(=O)c1c[n+](C)nc2ccccc12 [Compound A25]
5. C[n+]1cc(S(=O)(=O)[O-])c2ccccc2n1 [Compound A6, 2-methylcinnolin-2-ium-4-sulfonate]
6. CS(=O)(=O)[N-]C(=O)c1c[n+](CC(=O)NS(C)(=O)=O)nc2ccccc12 [Compound A13]

stdout:
1. 60
2. 60
3. 60
4. 20
5. 10
6. 10

Give pest or weed control at 1000 g/ha for each listed item.
1. COC(=O)C[n+]1cc(C(=O)[N-]S(C)(=O)=O)c2ccccc2n1 [Compound A15]
2. COP(=O)(O)Cc1c[n+](C)nc2ccccc12 [Compound A53]

stdout:
1: 10; 2: 90
